- Tested on: S. pneumoniae UC 41
- Test Method Notes: agar-dilution MIC test
- Format: cell-based
- Procedure: Isosensitest broth (Oxoid) and Todd-Hewitt broth (Difco) are used for growing staphylococci and streptococci, respectively. Broth cultures are diluted so that the final inoculum is about 10^4 colony forming units/ml (CFU/ml).
MIC by entry:

Molecule | Unit Of Measurement | MIC
CC(=O)N[C@H]1[C@H](OC2c3ccc(c(Cl)c3)Oc3cc4cc(c3O)Oc3ccc(cc3Cl)CC3NC(=O)C(N)c5ccc(O)c(c5)Oc5cc(O)cc(c5)C(NC3=O)C(=O)NC4C(=O)NC3C(=O)NC2C(=O)NC(C(=O)OCc2ccccc2)c2cc(O)cc(O)c2-c2cc3ccc2O)O[C@H](CO)[C@@H](O)[C@@H]1O.O=C(O)C(F)(F)F (some centres unmarked) | mg/L | 0.25
CC(=O)N[C@H]1[C@H](OC2c3ccc(c(Cl)c3)Oc3cc4cc(c3O)Oc3ccc(cc3Cl)CC3NC(=O)C(N)c5ccc(O)c(c5)Oc5cc(O)cc(c5)C(NC3=O)C(=O)NC4C(=O)NC3C(=O)NC2C(=O)NC(C(=O)OCc2ccc(C)cc2)c2cc(O)cc(O)c2-c2cc3ccc2O)O[C@H](CO)[C@@H](O)[C@@H]1O (some centres unmarked) | mg/L | 0.5
CC(=O)N[C@H]1[C@H](OC2c3ccc(c(Cl)c3)Oc3cc4cc(c3O)Oc3ccc(cc3Cl)CC3NC(=O)C(N)c5ccc(O)c(c5)Oc5cc(O)cc(c5)C(NC3=O)C(=O)NC4C(=O)NC3C(=O)NC2C(=O)NC(C(=O)OCCO)c2cc(O)cc(O)c2-c2cc3ccc2O)O[C@H](CO)[C@@H](O)[C@@H]1O.O=C(O)C(F)(F)F (some centres unmarked) | mg/L | 1
COC(=O)C1NC(=O)C2NC(=O)C(NC(=O)C3NC(=O)C4NC(=O)C(Cc5ccc(c(Cl)c5)Oc5cc3cc(c5O)Oc3ccc(cc3Cl)C2O[C@@H]2O[C@H](CO)[C@@H](O)[C@H](O)[C@H]2NC(C)=O)NC(=O)C(N)c2ccc(O)c(c2)Oc2cc(O)cc4c2)c2ccc(O)c(c2)-c2c(O)cc(O)cc21.Cl (some centres unmarked) | mg/L | 0.5
CCCCOC(=O)C1NC(=O)C2NC(=O)C(NC(=O)C3NC(=O)C4NC(=O)C(Cc5ccc(c(Cl)c5)Oc5cc3cc(c5O)Oc3ccc(cc3Cl)C2O[C@@H]2O[C@H](CO)[C@@H](O)[C@H](O)[C@H]2NC(C)=O)NC(=O)C(N)c2ccc(O)c(c2)Oc2cc(O)cc4c2)c2ccc(O)c(c2)-c2c(O)cc(O)cc21.Cl (some centres unmarked) | mg/L | 0.5
CC(=O)N[C@H]1[C@H](OC2c3ccc(c(Cl)c3)Oc3cc4cc(c3O)Oc3ccc(cc3Cl)CC3NC(=O)C(N)c5ccc(O)c(c5)Oc5cc(O)cc(c5)C(NC3=O)C(=O)NC4C(=O)NC3C(=O)NC2C(=O)NC(C(=O)OCCCl)c2cc(O)cc(O)c2-c2cc3ccc2O)O[C@H](CO)[C@@H](O)[C@@H]1O.Cl (some centres unmarked) | mg/L | 0.5
CC(=O)N[C@H]1[C@H](OC2c3ccc(c(Cl)c3)Oc3cc4cc(c3O)Oc3ccc(cc3Cl)CC3NC(=O)C(N)c5ccc(O)c(c5)Oc5cc(O)cc(c5)C(NC3=O)C(=O)NC4C(=O)NC3C(=O)NC2C(=O)NC(C(=O)OCCCCCl)c2cc(O)cc(O)c2-c2cc3ccc2O)O[C@H](CO)[C@@H](O)[C@@H]1O.Cl (some centres unmarked) | mg/L | 0.125
CCOC(=O)C1NC(=O)C2NC(=O)C(NC(=O)C3NC(=O)C4NC(=O)C(Cc5ccc(c(Cl)c5)Oc5cc3cc(c5O)Oc3ccc(cc3Cl)C2O[C@@H]2O[C@H](CO)[C@@H](O)[C@H](O)[C@H]2NC(C)=O)NC(=O)C(N)c2ccc(O)c(c2)Oc2cc(O)cc4c2)c2ccc(O)c(c2)-c2c(O)cc(O)cc21.Cl (some centres unmarked) | mg/L | 0.5
